Quick reference: self-cleavage kobs at 2500 uM GlcN6P of the listed items.
B1: glmS ribozyme (parent)
chain: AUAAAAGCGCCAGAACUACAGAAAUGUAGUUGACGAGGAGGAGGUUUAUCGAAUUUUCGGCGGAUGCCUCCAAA

Variants of: B1
Test: self-cleavage kobs at 2500 uM GlcN6P; higher = faster cleavage; RNA array
Details: with glucosamine-6-phosphate
Variants at the floor of the assay were thinned out.
Please give a number only; it is taken to be in s⁻¹.

U47C C71U | 0.00219
G41U U46A | 0.000324
C34A C50G C71U | 0.000247

q: Give the reported self-cleavage kobs at 2500 uM GlcN6P for this variant. G13A A53G
a: 0.000498
